# test_details: Passive permeability of compound in RRCK cells
# Type: ADME, cell-based, Canis lupus familiaris, MDCKII-LE
# condition_summary: dog, MDCK; read-out: permeability
One threshold, 20 ×10⁻⁶ cm/s, splits the recorded Papp values: lower ones are met, equal or higher ones are not met.

Strictly below 20 ×10⁻⁶ cm/s in Papp? COC(=O)N1CC[C@](CO)(Nc2cc(-c3cnc(N)nc3)nc(N3CCOCC3)n2)C1
met

Queued: C[C@]1(N2CCc3c(-c4cnc(N)nc4)nc(N4CCOCC4)nc32)CCN(S(C)(=O)=O)C1
not met

Quick one: Nc1ncc(-c2ccnc(N3CCOCC3)n2)cn1
not met

Same read-out for CNS(=O)(=O)N1CC[C@](C)(N2CCc3c(-c4cnc(N)nc4)nc(N4CCOCC4)nc32)C1 ?
not met

Request: CC(=O)N1CC[C@H](N2CCc3c(-c4cnc(N)nc4)nc(N4CCOCC4)nc32)C1
met

Follow-up item: Nc1ncc(-c2nc(N3CCOCC3)nc3c2CCN3[C@H]2CCNC2)cn1
met

Same thing, different compound: CC(C)(C)OC(=O)N1CC[C@](C)(N2CCc3c(-c4cnc(N)nc4)nc(N4CCOCC4)nc32)C1
not met

---

Listed compounds paired with reported logD
# test_details: Distribution coefficient, logD of compound at pH 7.4
# Type: physicochemical
# condition_summary: octanol/water
Write no unit; give the number alone.

# smi, assay_result
rows = [
    ("CNC(=O)N1CC[C@](C)(N2CCc3c(-c4cnc(N)nc4)nc(N4CCOCC4)nc32)C1", 1.7),
    ("COC(=O)N1CC[C@H](N2CCc3c(-c4cnc(N)nc4)nc(N4CCOCC4)nc32)C1", 1.9),
    ("CC(C)(C)OC(=O)N1CC[C@](C)(N2CCc3c(-c4cnc(N)nc4)nc(N4CCOCC4)nc32)C1", 3.7),
    ("C[C@]1(N2CCc3c(-c4cnc(N)nc4)nc(N4CCOCC4)nc32)CCN(S(C)(=O)=O)C1", 1.6),
    ("Nc1ncc(-c2ccnc(N3CCOCC3)n2)cn1", 1.5),
]

# input for lookup
Data request, read-out logD, for Nc1ncc(-c2cc(N[C@@]3(CO)CCN(C(=O)OCC(F)F)C3)nc(N3CCOCC3)n2)cn1
1.7

---

# test_details: Passive permeability of compound in RRCK cells
# Assay type: ADME, cell-based, Canis lupus familiaris, MDCKII-LE
# condition_summary: dog, MDCK; read-out: permeability
Recorded Papp by entry
Give your result in ×10⁻⁶ cm/s as a bare value.

# smi, reading_unit, Papp
rows = [
    ("CC(C)(C)OC(=O)N1CC[C@](C)(Nc2cc(-c3cnc(N)nc3)nc(N3CCOCC3)n2)C1", "×10⁻⁶ cm/s", 11),
]

If you can, please state the reported Papp value of CNS(=O)(=O)N1CC[C@H](N2CCc3c(-c4cnc(N)nc4)nc(N4CCOCC4)nc32)C1 .
16

// repeat for COC(=O)N1CC[C@](CO)(Nc2nc(N3CCOCC3)nc(-c3cnc(N)nc3)c2F)C1 and report
6.2

Input CC(C)(O)C(=O)N1CC[C@](C)(N2CCc3c(-c4cnc(N)nc4)nc(N4CCOCC4)nc32)C1
25

Do the same for CS(=O)(=O)N1CC[C@H](N2CCc3c(-c4cnc(N)nc4)nc(N4CCOCC4)nc32)C1 please
18

Next entry: Nc1ncc(-c2nc(N3CCOCC3)nc(N[C@@]3(CO)CCN(C(=O)OCC(F)F)C3)c2F)cn1
13

---

# test_details: Distribution coefficient, logD of compound at pH 7.4
# Format: physicochemical
# condition_summary: octanol/water
measure_name: logD
Give the figure by itself; no unit, no explanation.

# smi, logD
rows = [
    ("CC(C)(N)C(=O)N1CC[C@](C)(N2CCc3c(-c4cnc(N)nc4)nc(N4CCOCC4)nc32)C1", 0.4),
]

Consider the compound Nc1ncc(-c2nc(N3CCOCC3)nc3c2CCN3[C@H]2CCNC2)cn1 and give its measured logD.
-0.74

Continue with CC(=O)N1CC[C@@](C)(N2CCc3c(-c4cnc(N)nc4)nc(N4CCOCC4)nc32)C1
1.6

---

# test_details: Passive permeability of compound in RRCK cells
# Format: ADME, cell-based, Canis lupus familiaris, MDCKII-LE
# condition_summary: dog, MDCK; read-out: permeability
Binarize Papp at 20 ×10⁻⁶ cm/s; below is Met, at or above is Not met.

# smi, category
data = [
    ("COC(=O)N1CC[C@](C)(N2CCc3c(-c4cnc(N)nc4)nc(N4CCOCC4)nc32)C1", "Not met"),
]

API: query returns whether the compound falls strictly under 20 ×10⁻⁶ cm/s in Papp. Query: CC(C)(C)OC(=O)N1CC[C@](CO)(Nc2cc(-c3cnc(N)nc3)nc(N3CCOCC3)n2)C1
Met

Now try CS(=O)(=O)N1CC[C@](CO)(Nc2cc(-c3cnc(N)nc3)nc(N3CCOCC3)n2)C1 .
Met

Queued: CNC(=O)N1CC[C@H](N2CCc3c(-c4cnc(N)nc4)nc(N4CCOCC4)nc32)C1
Met
